Values compiled from ChEMBL document CHEMBL5518215.

Test: Cytotoxicity against porcine IPEC-J2 cells assessed as cell survival rate measured after 8 hrs by MTT assay
Type: toxicity, cell-based, Sus scrofa
Conditions: pig
recorded_endpoint: log10 IC50 at 8 h (log10 of the value in µM)

{"columns": ["substance", "log10 IC50 at 8 h"],
 "data": [
  ["H-GKLWLKGFKLWLKGGKLWLKG-NH2", 1.55],
  ["H-VKLWLKGGKLWLKGGKLWLKG-NH2", 1.78],
  ["H-CKLWLKGGKLWLKGGKLWLKG-NH2", 1.16],
  ["H-GKLWLKGLKLWLKGGKLWLKG-NH2", 1.32],
  ["H-GKLWLKGIKLWLKGGKLWLKG-NH2", 1.28],
  ["H-GKLWLKGWKLWLKGGKLWLKG-NH2", 0.59],
  ["H-GKLWLKGVKLWLKGGKLWLKG-NH2", 0.94],
  ["H-LKLWLKGGKLWLKGGKLWLKG-NH2", 1.52],
  ["H-GKLWLKGMKLWLKGGKLWLKG-NH2", 1.32],
  ["H-GKLWLKGGKLWLKAGKLWLKG-NH2", 1.73],
  ["H-WKLWLKGGKLWLKGGKLWLKG-NH2", 1.11],
  ["H-IKLWLKGGKLWLKGGKLWLKG-NH2", 1.50],
  ["H-FKLWLKGGKLWLKGGKLWLKG-NH2", 1.30],
  ["H-MKLWLKGGKLWLKGGKLWLKG-NH2", 1.61]
]}

----------
System: Escherichia coli
Test: Antimicrobial activity against Escherichia coli 25922 assessed as absence bacterial growth measured after 18 to 24 hrs incubation in presence of KCl by NCCLS method
Assay type: functional
Details: time 18-24 hrs

{"columns": ["substance", "tested_on", "MIC, µM"],
 "data": [
  ["H-WKLWLKGGKLWLKGGKLWLKG-NH2", "Escherichia coli", 8],
  ["H-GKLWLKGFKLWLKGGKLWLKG-NH2", "Escherichia coli", 4],
  ["H-LKLWLKGGKLWLKGGKLWLKG-NH2", "Escherichia coli", 8],
  ["H-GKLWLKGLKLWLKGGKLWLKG-NH2", "Escherichia coli", 2],
  ["H-GKLWLKAGKLWLKGGKLWLKG-NH2", "Escherichia coli", 2],
  ["H-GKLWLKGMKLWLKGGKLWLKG-NH2", "Escherichia coli", 2],
  ["H-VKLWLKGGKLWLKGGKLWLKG-NH2", "Escherichia coli", 4]
]}

----------
Test system: Staphylococcus aureus
Experiment: Antimicrobial activity against Staphylococcus aureus 29213 assessed as bacterial killing measured after 16 hrs incubation
Type: functional

{"columns": ["substance", "relation_sign", "MBC (µM)"],
 "data": [
  ["H-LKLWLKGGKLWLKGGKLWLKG-NH2", ">", 32],
  ["H-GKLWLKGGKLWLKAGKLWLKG-NH2", "=", 8],
  ["H-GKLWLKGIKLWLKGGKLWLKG-NH2", "=", 8],
  ["H-AKLWLKGGKLWLKGGKLWLKG-NH2", ">", 32],
  ["H-GKLWLKGGKLWLKGGKLWLKA-NH2", "=", 32],
  ["H-AKLWLKAAKLWLKAAKLWLKA-NH2", "=", 2],
  ["H-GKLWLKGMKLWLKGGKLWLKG-NH2", "=", 4],
  ["H-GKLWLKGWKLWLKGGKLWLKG-NH2", "=", 4]
]}
